- measured_target: CCK-B receptor (Rattus norvegicus)
- Construct: the whole brain was immediately excised from each of the rats and homogenized; from tissue; host or cells: SD rat whole brain membranes
- Sequence (P30553 1-452): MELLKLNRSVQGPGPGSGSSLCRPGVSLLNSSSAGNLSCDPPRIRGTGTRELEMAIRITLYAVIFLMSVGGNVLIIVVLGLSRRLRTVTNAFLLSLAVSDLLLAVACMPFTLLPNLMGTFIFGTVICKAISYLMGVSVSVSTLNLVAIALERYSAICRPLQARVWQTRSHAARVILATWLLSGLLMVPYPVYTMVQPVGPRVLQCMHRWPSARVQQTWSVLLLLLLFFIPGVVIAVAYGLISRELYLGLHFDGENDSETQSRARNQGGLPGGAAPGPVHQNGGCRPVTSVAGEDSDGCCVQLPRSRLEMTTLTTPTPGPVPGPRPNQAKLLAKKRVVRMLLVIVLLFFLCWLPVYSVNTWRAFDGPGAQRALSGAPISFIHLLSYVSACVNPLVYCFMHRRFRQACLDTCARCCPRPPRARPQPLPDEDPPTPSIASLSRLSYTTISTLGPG
- assay: Measurement of binding affinity for CCK-B receptors ([125I]BH-CCK-8, rat brain membranes)
- Design: species or system SD rat
- condition_description: table 1; rat brain membranes, [125I]BH-CCK-8, 25 °C, 120 min; read-out: IC50 (CCK-B receptor binding)
readout_type: IC50 (nM)
Respond with the bare value in nM.

I'd like to know its IC50. The molecule in question is `CN(C)c1cccc(NC(=O)N[C@@H]2N=C(c3ccccn3)c3ccccc3N(CC(=O)C(C)(C)C)C2=O)c1`
0.2

Same thing, different molecule: CNc1cccc(NC(=O)NC2N=C(c3ccccn3)c3ccccc3N(CC(=O)C(C)(C)C)C2=O)c1 (racemic)
1.4

Same thing, different molecule: `Cc1cccc(NC(=O)N[C@@H]2N=C(c3ccccn3)c3ccccc3N(CC(=O)C(C)(C)C)C2=O)c1`
0.44

Same thing, different molecule: `CN(C(=O)OC(C)(C)C)c1cccc(C(=O)O)c1`
0.88
